system: PC-3 prostate; experiment: NCI-60 one-dose screen, 48 h (100 = growth as untreated, 0 = no growth, -100 = all killed); conditions: 10 µM unless noted
Compounds without any hit were thinned out: in the full panel of roughly 83,000, 20% have a hit.
# if measured growth < 70%: 1 (yes)  # else: 0 (no)

As a guide, the following entries are already answered.
compound: CCCCn1c(=O)c(/C=C/C(=O)/C=C/c2ccc(OC)cc2)cc2cc(Cl)ccc21
answer.label: 1 (yes)

compound: C=C1C(=O)O[C@H]2[C@H]1CC/C(COC(=O)Nc1nc3ccccc3[nH]1)=C\CC[C@@]1(C)O[C@@H]21
answer.label: 1 (yes)

compound: CNS(=O)(=O)c1cccc(-c2ccc3c4c(n(C)c(=O)c3c2)-c2ccccc2C4=O)c1
answer.label: 0 (no)

compound: C=C1C(=O)O[C@H]2[C@H]1CC/C(COC(=O)CCCCCCCC(=O)OC/C1=C/CC[C@@]3(C)O[C@H]3[C@H]3OC(=O)C(=C)[C@@H]3CC1)=C\CC[C@@]1(C)O[C@@H]21
answer.label: 1 (yes)

compound: C#CCN1C(=O)c2ccccc2N(CC#C)C12CCN(Cc1cn(CC(=O)Nc3ccccc3C(N)=O)nn1)CC2
answer.label: 0 (no)

Now let's try a different one.
Task item: hey, is growth for CCCCc1n(Cc2ccc3ccccc3n2)cc[n+]1Cc1ccc2ccccc2c1 lower than 70% or not?
Reply: 1 (yes)

---

tested on: SK-MEL-5 melanoma; test: NCI-60 one-dose screen, 48 h (100 = growth as untreated, 0 = no growth, -100 = all killed); conditions: 10 µM unless noted
Compounds without any hit were thinned out: in the full panel of roughly 83,000, 20% have a hit.
Sorting guide: entries reporting growth beneath 90% go in the Met pile, the rest go in the Not met pile.

Consider the worked cases shown below.
molecule: Cc1cc2ccccc2c[n+]1CC(=O)c1ccc(-c2ccccc2)cc1
answer.label: Met
//
molecule: Nc1cc(N)nc(SCC(=O)O)n1
answer.label: Not met
//
molecule: COc1cc(NC(=O)COc2cc(C)nc3ccc(OC)cc23)cc(OC)c1
answer.label: Met
//
molecule: CCN1CCN(Cc2ccc(NC(=O)c3cccc(C#Cc4cccc5[nH]nc(N)c45)c3)cc2C(F)(F)F)CC1
answer.label: Met
//
molecule: COc1ccc(-n2cc(-c3ccc(Cl)c(Cl)c3)[nH]c2=O)cc1OC
answer.label: Not met
//
molecule: COc1ccc(-c2cc(-c3nnc(SCC(=O)Nc4ccc(/C(C)=N\O)cc4)n3-c3ccccc3)c3cc(OC)ccc3n2)cc1
answer.label: Met

Task item: Lab log: compare recorded growth with 90%; is it strictly lower for O=C1C(=O)c2c(nc3ccc(Br)cn23)-c2ccccc21 ?
Reply: Met

Task item: Does CCOC(=O)CC[C@H](NC(=O)c1ccc(NC)c2ccccc12)C(=O)OCC have growth strictly under 90%?
Reply: Not met

Task item: Hi there! Is growth for O=c1cc(/C=N\Nc2nc(-c3ccc(Cl)cc3Cl)cs2)c2cc(Cl)ccc2o1 below 90%, do you know?
Reply: Met

Task item: In plain terms, does CCCCCCCCCCCCCC1=NCC[N+]1(CCO)Cc1ccccc1 (configuration not stated) come in under 90% for growth?
Reply: Met

Task item: State whether 90% exceeds growth recorded for Cc1cc(C)c(NC(=O)c2sc3nc4c(cc3c2N)CCCCCC4)c(C)c1 .
Reply: Met

Task item: Is growth strictly under 90% for the entry CC(=O)[C@@H]1CC[C@]2(C(=O)O)CC[C@]3(C)[C@H](CC[C@@H]4[C@@]5(C)Cc6c([nH]c7ccccc67)C(C)(C)[C@@H]5CC[C@]43C)[C@@H]12 ?
Reply: Met

---

Test system: SNB-19 CNS
Experiment: NCI-60 one-dose screen, 48 h (100 = growth as untreated, 0 = no growth, -100 = all killed)
Details: 10 µM unless noted
Experimental: Growth inhibition of the SNB-19 human tumor cell line is measured as a screen for anti-cancer activity. Cells are grown in 96 well plates and exposed to the test compound for 48 hours. Compounds are tested at a single concentration, which is 10^-5 M for most compounds. The reported endpoint is percent growth (GI% or GIPRCNT), where numbers from 0 - 100% represent growth inhibition, and numbers from -100% - 0 represent cell death. For example, a value of 40 represents 60% growth inhibition. […]
This is part of a sample that, as a whole, favours compounds with a hit. Of some 83,000 tested, about 20% had one in any assay.
// values below are reported growth
Write down the numeric answer in % and omit the unit.

Recorded growth, per entry:
compound: CN(C)CSc1nc2ccccc2s1
growth / %: 110
--
compound: O=C(Nc1nc2ccc(C(F)(F)F)cc2s1)c1cc(Cl)ccc1O
growth / %: 20.5
--
compound: CC(=O)Nc1c(C(=O)Nc2ccccc2)sc2nc3c(cc12)C(OC(C)=O)CCC3 (stereo not given)
growth / %: 95.8

Task item: growth lookup needed for COc1cc(C2CC(c3ccc(Nc4nc(NCCO)nc(NCCO)n4)cc3)=NN2c2cc(Cl)cc(Cl)c2)cc(OC)c1OC (stereo not given) , thanks.
Reply: 17.4

Task item: Which growth value belongs to O=c1[nH]c(-c2cccc(F)c2)cc2cc(F)ccc12 ?
Reply: 26.6

---

system: T-47D breast; test: NCI-60 one-dose screen, 48 h (100 = growth as untreated, 0 = no growth, -100 = all killed); details: 10 µM unless noted
Compounds without any hit were thinned out: in the full panel of roughly 83,000, 20% have a hit. Activity calls are given as the source filed them. The calls were made as follows: active = growth percent below 10; inactive = the rest.
quantity.name: growth

Some entries whose results are on file:
compound: COc1ccc2c(c1)Oc1nc(N)c(C#N)c(N)c1C2Sc1ccc(O)cc1 (centres undefined)
experimental.system: T-47D breast
growth: 50.7% (inactive)
//
compound: NC(=O)CN1C(=O)c2ccccc2C1=O
experimental.system: T-47D breast
growth: 89.9% (inactive)
//
compound: CCCn1cc(/C=N\N=C2\C(=O)Nc3ccc(C)cc32)c2ccccc21
experimental.system: T-47D breast
growth: 39.6% (inactive)
//
compound: C=C(C)[C@@H]1CC[C@]2(C(=O)O)CC[C@]3(C)[C@H](CC[C@@H]4[C@@]5(C)C[C@@H](CC#Cc6ccc(Cl)cc6)C(=O)C(C)(C)[C@@H]5CC[C@]43C)[C@@H]12
experimental.system: T-47D breast
growth: 39.4% (inactive)

Task item: Please give the measured growth for this compound: C=C1C(=O)O[C@H]2[C@H]1CC/C(COC(=O)Nc1nc3ccccc3[nH]1)=C\CC[C@@]1(C)O[C@@H]21
Reply: 50.3% (inactive)

---

tested on: HCT-15 colon; assay: NCI-60 one-dose screen, 48 h (100 = growth as untreated, 0 = no growth, -100 = all killed); conditions: 10 µM unless noted
This is part of a sample that, as a whole, favours compounds with a hit. Of some 83,000 tested, about 20% had one in any assay.
quantity.name: growth (%)
API: value field is a number in %; no unit string.

Known growth results, listed for orientation:
molecule: Cc1nnc(/N=C2\NC(=O)/C(=C/c3ccc(N(C)C)cc3)S2)s1
meas.value: 47.7
--
molecule: COc1ccc(C2CC(c3ccc(OC)cc3O)=NN2c2ccc(S(N)(=O)=O)cc2)cc1 (stereo unspecified)
meas.value: 33.6
--
molecule: C=C1C(=O)O[C@H]2[C@H]1CC/C(C=Nc1c(N)cc(F)cc1Br)=C\CC[C@@]1(C)O[C@@H]21
meas.value: 30.6
--
molecule: C#C[C@@]1(O)[C@@H](CO)O[C@@H](n2ccc3c(N)ncnc32)[C@@H]1O
meas.value: 2.94
--
molecule: COc1cccc2c1-c1ccccc1C2=O
meas.value: 33.3
--
molecule: O=C(O)c1ccc(-n2cc(/C=N/Nc3ccc(Cl)cc3Cl)c(-c3ccccc3)n2)cc1
meas.value: 72
--
molecule: CCc1n(Cc2ccc3ccccc3c2)c2ccccc2[n+]1Cc1ccc2ccccc2c1
meas.value: 101
--
molecule: COCCc1n(Cc2ccc3ccccc3c2)c2ccccc2[n+]1Cc1ccc2ccccc2c1
meas.value: 7.25
--
molecule: CCCCc1nc(Cl)c(C2CC(c3ccc(Cl)cc3)=NN2c2cc(Cl)cc(Cl)c2)[nH]1 (stereo unspecified)
meas.value: 86.5
--
molecule: Cc1c(Cl)cccc1NC(=O)c1sc2nc3c(cc2c1N)COCC3
meas.value: 19.6

Task item: Item Cc1cc(Nc2nc(SCc3ccc(C(=O)Nc4ccc(F)cc4N)cc3)nn3cccc23)n[nH]1 has what recorded growth?
Reply: 22.6

Task item: Entry COC(=O)[C@]1(C)CCC[C@]2(C)[C@H]3C[C@H]4C(C(C)C)=C[C@]3(CC[C@H]21)[C@@H]1C(=O)N(CCC#N)C(=O)[C@@H]14 : reported growth = ?
Reply: 83.2

Task item: Query (molecule): Nc1c(C(=O)Nc2ccccc2Cl)sc2nc3c(cc12)CN(Cc1ccccc1)CC3 ; field requested: growth
Reply: 95.7

Task item: Query: growth; subject: COc1ccc(C(C)c2cc(OC)c(OC)c(OC)c2)cc1 (stereo unspecified)
Reply: 18

Task item: Can you share its growth? I mean this molecule: Cc1ccccc1NC(=O)c1sc2nc(C)c(C(C)O)cc2c1N (stereo unspecified)
Reply: 35.3

Task item: Given O=c1[nH]c2ccccc2cc1-c1nc2ccncc2[nH]1 , state its recorded growth.
Reply: 85.9

Task item: Using the record for COc1cc(C(C)c2ccc3c(ccn3C)c2)cc(OC)c1OC (stereo unspecified) , report its growth.
Reply: 15.9

Task item: Given the molecule COC(=O)CCc1n(Cc2ccc3ccccc3c2)c2ccccc2[n+]1Cc1ccc2ccccc2c1 , what is its reported growth?
Reply: 79.1

Task item: Fill in the blank: the reported growth of Cc1cnc(-c2ccc(-c3ccc(NC(=O)Nc4c(F)cc(F)cc4F)cc3F)c3c2C(=O)NC3)[nH]1 is ____.
Reply: 49.4

Task item: Record request: growth value, item CC(=O)Nc1ccc2c(c1)Cc1cc(F)ccc1-2
Reply: 105

Task item: What value of growth has been reported for the following molecule? Cc1cc2ccccc2c[n+]1CC(=O)c1ccc(-c2ccccc2)cc1
Reply: 84
